# Tested on: MCF7
# assay overview: panel of 60 human tumor cell lines, growth inhibition (Breast Cancer)
# assay context: Homo sapiens, MCF7, read-out: TGI
The following molecules are listed with their measured IC (TGI) values.
Numeric answer only, unit µM assumed.

Before answering, review these 3 worked examples.
> print(dat)
                                   molecule  data.value
1  C=C1C(=O)O[C@H]2[C@H]1CC/C(COC(=O)NCCCCCCO)=C\CC[C@@]1(C)O[C@@H]21 [JVM 2-31]          12
2  C=C1C(=O)O[C@H]2[C@H]1CC/C(COC(=O)OCCN(C)C)=C\CC[C@@]1(C)O[C@@H]21 [JVM 2-35]          13
3  C=C1C(=O)O[C@H]2[C@H]1CC/C(COC(=O)CCC(=O)NCc1ccc(Cl)nc1)=C\CC[C@@]1(C)O[C@@H]21 [JVM 96]        13.6

Please provide the recorded IC (TGI) for C=C1C(=O)O[C@H]2[C@H]1CC/C(COC(=S)n1ccnc1)=C\CC[C@@]1(C)O[C@@H]21 [JVM 66] , tested on MCF7. 19.8
